Listing: growth inhibition of selected molecules
Test: NCI Yeast Anticancer Drug Screen. Data for the bub3 strain (AID 167)
Conditions: S. cerevisiae bub3 mutant strain, at 50.0 µM (retest, dose inferred, filed as 5.0), active compounds read high
About 79,000 compounds went through this panel and 15% of them were active in at least one assay; those are over-represented in the sample as a whole.
Just the number in %, nothing appended.

Previously resolved entries follow.
[
  {
    "molecule": "O=c1cccccc1[O-].O=c1cccccc1[O-].O=c1cccccc1[O-].[Sm+3]",
    "experimentalResult": 11
  },
  {
    "molecule": "CC(=O)N(C1=C(Cl)C(=O)c2ccccc2C1=O)c1ccc(Cl)cc1",
    "experimentalResult": 99
  },
  {
    "molecule": "Cc1cccc(C)c1N1C(=O)C(=O)C(c2nc3ccccc3s2)/C(=N/NC(=O)c2ccccc2O)C1=O (stereo not drawn)",
    "experimentalResult": 19
  },
  {
    "molecule": "CN1C(=O)C2N(C(=O)C1(C)S)c1ccccc1C2(C)C (stereo not drawn)",
    "experimentalResult": 25
  },
  {
    "molecule": "O=C(O)Cc1ccccc1CCc1ccccc1Cl",
    "experimentalResult": 83
  },
  {
    "molecule": "Nc1ccc2ccccc2c1Cc1c(O)ccc2ccccc12",
    "experimentalResult": 63
  },
  {
    "molecule": "C=C(c1ccccc1)[N+](=O)[O-]",
    "experimentalResult": 99
  },
  {
    "molecule": "CC1=C(C(=O)Nc2ccccc2)C(c2ccccc2F)C(C(=O)Nc2ccccc2)=C(C)N1",
    "experimentalResult": 28
  },
  {
    "molecule": "CCCCN(CCCC)CCCCNc1ccc(C)c2sc3ccccc3c(=O)c12",
    "experimentalResult": 98
  },
  {
    "molecule": "N#CSCC(=O)c1ccc(Cl)cc1",
    "experimentalResult": 99
  }
]

Exercise: Returns the measured growth inhibition for the input molecule. Input: `CCN(CC)CC(C)(C)C(=O)/C=C/c1ccc(Cl)c(Cl)c1`
Key: 98

Exercise: Next molecule up: COCC1C(=O)c2cc3c(cc2C12C=CC1(C=C2)OCCO1)OCO3 (stereo not drawn)
Key: -7

Exercise: Next molecule up: CNC(=O)OC(C)CN1c2ccccc2Sc2ccc(Cl)cc21 (stereo not drawn)
Key: 98

Exercise: Next molecule up: NC(CCC(=O)NC(CS(=O)(=O)O)C(=O)O)C(=O)O (stereo not drawn)
Key: -6

Exercise: Next molecule up: `CCCCCCCCCCCCCCNCc1ccccc1`
Key: 97

Exercise: Next molecule up: `O=S(=O)(O)SCCNCCCCCC1CCCCC1`
Key: 95

Exercise: Next molecule up: `CCCCOc1c(OCCCC)c(=O)c1=O`
Key: 54

Exercise: Next molecule up: `Cc1[nH]c2ccccc2c1C(c1ccccc1)c1c(C)[nH]c2ccccc12`
Key: 97

Exercise: Next molecule up: `C[C@]12CC[C@H](O)C[C@@H]1CC[C@@H]1[C@@H]2C(=O)C[C@]2(C)C3=CC(=O)O[C@H]3C[C@@H]12`
Key: 97

Exercise: Next molecule up: `NC(=Nc1cc2ccccc2c2ccccc12)/N=C(/N)Nc1cc2ccccc2c2ccccc12`
Key: 98

Exercise: Next molecule up: `CCOc1ncc(Cl)c(OCC)n1`
Key: -3

Exercise: Next molecule up: `O=C(CSC1=NNC2(C(=O)N1)c1ccccc1-c1ccccc12)NC(=S)Nc1ccccc1`
Key: 94
